Source of measurements: paper PMC8126888

Overview of reported IC50 across a group of compounds:
Tested on: primary peritoneal mouse macrophages (PMM)
Assay: cells
Details: Macrophage, read-out: PMM pIC50 (converted)
OBSERVED_PROPERTY: IC50

[[record]]
smi = "COc1ccc(OC)c(S(=O)(=O)N(C)Cc2ccc(F)cc2)c1"
result = "> 64.6 µM"

[[record]]
smi = "O=S(=O)(c1cc(F)ccc1F)N(Cc1ccc(F)cc1)Cc1ccc(F)cc1"
result = "> 64.6 µM"

[[record]]
smi = "COCCN(Cc1ccccc1)S(=O)(=O)c1cc(OC)ccc1OC"
result = "> 64.6 µM"

[[record]]
smi = "COc1ncccc1S(=O)(=O)N(Cc1ccccc1)Cc1ccccc1"
result = "> 64 µM"

